Biological target: Pig IR (pig, UniProt F1SCL0 28-1382)
Experiment: cell-based or functional assay
For each of the binders below, state its Pig IR phosphorylation [EC 50 nM] mean.
State just the number; it will be interpreted in nM.

If you can, please state the reported Pig IR phosphorylation [EC 50 nM] mean value of scl-Fc fusion protein INS006 (Fc fusion) SFVNQHLCGSHLVEALELVCGERGFHYTDKTEEYPGDVGIVEQCCTSICSLEQLENYCGGEAEDLQVGQVELGGGPGAGSLQPEGSLQGGPSVFLFPPKPKDTLMISRTPEVTCVVVDVSHEDPEVKFNWYVDGVEVHNAKTKPREEQYNSTYRVVSVLTVLHQDWLNGKEYKCKVSNKALPAPIEKTISKAKGQPREPQVYTLPPSRDELTKNQVSLTCLVKGFYPSDIAVEWESNGQPENNYKTTPPVLDSDGSFFLYSKLTVDKSRWQQGNVFSCSVMHEALHNHYTQKSLSLSPGGGGGSAESKYGPPCPPCPA .
52.5

For scl-Fc fusion protein INS014 (Fc fusion) SFVNQHLCGSHLVEALHLVCGERGFHYTPKTGSYPGGVGIVEQCCTSICSLSQLEDYCGGEAEDLQVGQVELGGGPGAGSLQPEGSLQGGPSVFLFPPKPKDTLMISRTPEVTCVVVDVSHEDPEVKFNWYVDGVEVHNAKTKPREEQYNSTYRVVSVLTVLHQDWLNGKEYKCKVSNKALPAPIEKTISKAKGQPREPQVYTLPPSRDELTKNQVSLTCLVKGFYPSDIAVEWESNGQPENNYKTTPPVLDSDGSFFLYSKLTVDKSRWQQGNVFSCSVMHEALHNHYTQKSLSLSPGGGGGSAESKYGPPCPPCPA then?
28.4
